subjectOfTest: EPHB1 (UniProt P54762)
Sequence (P54762 whole entry, looked up): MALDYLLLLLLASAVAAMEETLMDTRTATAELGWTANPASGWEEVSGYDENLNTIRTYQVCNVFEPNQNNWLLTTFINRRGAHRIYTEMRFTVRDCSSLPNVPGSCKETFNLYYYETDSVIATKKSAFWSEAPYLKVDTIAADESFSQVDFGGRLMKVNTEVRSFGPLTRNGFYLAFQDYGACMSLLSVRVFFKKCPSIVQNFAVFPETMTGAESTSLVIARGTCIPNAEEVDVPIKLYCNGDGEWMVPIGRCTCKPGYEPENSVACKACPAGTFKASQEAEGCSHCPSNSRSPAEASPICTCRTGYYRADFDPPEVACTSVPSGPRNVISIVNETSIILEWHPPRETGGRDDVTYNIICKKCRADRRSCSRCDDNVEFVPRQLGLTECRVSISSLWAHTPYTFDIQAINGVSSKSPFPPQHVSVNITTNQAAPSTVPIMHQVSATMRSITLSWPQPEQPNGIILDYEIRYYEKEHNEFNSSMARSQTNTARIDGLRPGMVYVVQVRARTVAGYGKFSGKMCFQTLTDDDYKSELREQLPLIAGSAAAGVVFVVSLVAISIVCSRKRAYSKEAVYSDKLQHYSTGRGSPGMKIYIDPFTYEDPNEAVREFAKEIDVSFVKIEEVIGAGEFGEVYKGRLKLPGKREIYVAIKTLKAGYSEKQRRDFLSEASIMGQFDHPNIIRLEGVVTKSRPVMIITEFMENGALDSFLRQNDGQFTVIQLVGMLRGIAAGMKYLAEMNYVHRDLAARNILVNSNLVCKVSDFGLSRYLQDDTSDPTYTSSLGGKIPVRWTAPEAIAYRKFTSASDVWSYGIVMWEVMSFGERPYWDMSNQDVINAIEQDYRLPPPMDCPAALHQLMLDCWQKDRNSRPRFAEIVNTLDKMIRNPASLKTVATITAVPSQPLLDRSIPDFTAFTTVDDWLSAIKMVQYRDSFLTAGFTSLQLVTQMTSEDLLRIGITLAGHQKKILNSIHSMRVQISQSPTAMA
protocolSummary: phosphorylation enrichment, bacterial display (enrichment ratio); higher = better substrate or ligand; peptides without Tyr show the background;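 also: 11-residue human phosphosite peptides and single-mutation variants displayed on the E. coli surface, counted by deep sequencing, each peptide's frequency after selection divided by its frequency in the unselected input library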;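 also: frequency after pTyr selection over input frequency; kinase dosed for 20-30% of maximal phosphorylation in three min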
recordedEndpoint: phosphorylation enrichment
API doc: respond with a numeric literal and nothing else, no unit.

See these solved cases before continuing.
sequenceText	phosphorylation enrichment
TVEDHDYEGGI [TKT_Y563_Y563D]	0.543
AAFNRYDQERF [CDC73_Y293_YF]	0.402
FSDQVYRQRRK [TH_Y230]	0.557
KSLSQYLEMDK [CAGE1_Y438_V435L]	0.382
ARVDTYCRHNF [HLA-DRB1_Y107_A103R_YF]	0.41

The measured phosphorylation enrichment associated with HNLDFYKMTTN [FGFR3_Y648_K650M_YF] reads 0.954

The measured phosphorylation enrichment associated with EVVGRYSLHNA [MLH1_Y183_V185L] reads 0.421

The measured phosphorylation enrichment associated with SPQAHYRLSAF [ADAMTS9_Y100_S96P] reads 0.531

The measured phosphorylation enrichment associated with LVSCAYQVARG [FGFR1_Y605] reads 0.61

The measured phosphorylation enrichment associated with EQKRFYNAMKK [SCN5A_Y1495_K1493R_YF] reads 0.562

The measured phosphorylation enrichment associated with MSSLPYMKMIF [SLC4A11_Y853] reads 0.474

The measured phosphorylation enrichment associated with KTVQDYLKKFF [MMP8_Y36_E38K_YF] reads 0.473

The measured phosphorylation enrichment associated with FVTSMYNEILI [TRPV1_Y310_M315I] reads 0.684

====

Test system: c-Abl (mouse)
protocolSummary: phosphorylation enrichment, bacterial display (enrichment ratio); higher = better substrate or ligand; peptides without Tyr show the background
Each record's class is read off its phosphorylation enrichment using these ranges: low end = under 0.6, middle = from 0.6 up to 0.9, high end = 0.9 and over

sequenceText	subjectOfTest	category
SQQTYCRVSNM [ABCD1_Y181_Y181C]	c-Abl (mouse)	middle
GRPMDYHVSIT [OTOF_Y254_Q255H]	c-Abl (mouse)	middle
YQEPVYSVAFS [TBL1X_Y509_H504Y]	c-Abl (mouse)	high end
REGKIYEYNQV [ZNF665_Y162_H157R]	c-Abl (mouse)	high end
VHNLDYYKETT [FGFR3_Y647_K650E]	c-Abl (mouse)	low end

Ask: Determine which band this sequence sits in: TRVMEYISCLD [CLTCL1_Y1043_R1046C]
Result: high end

Ask: Determine which band this sequence sits in: RISRKYKKVRF [F8_Y442_G439S]
Result: middle

Ask: Determine which band this sequence sits in: VCRHNYGVVES [HLA-DRB1_Y112_Y107V]
Result: low end

====

Tested on: AncSZ
protocolSummary: phosphorylation enrichment, bacterial display (enrichment ratio); higher = better substrate or ligand; peptides without Tyr show the background
# binarize phosphorylation enrichment: threshold 1 inclusive, high side Met, low side Not met

sequenceText	category
EMFNPCYGLFE [NEDD4L_Y679_Y679C]	Met
VHHLVYHHHHH [CACNA1H_Y519]	Not met
GRVYVYRLSEQ [ITGAE_Y551]	Not met
TFEPNYGTVKR [RAPGEF6_Y1447_Q1452R_YF]	Not met
KSIDEYLKLVG [RASAL2_Y381_E379D]	Not met

Ask: Form field: phosphorylation enrichment at least 1? Entry: VEYAKYGSLRG [RET_Y809]
Result: Not met

Ask: Form field: phosphorylation enrichment at least 1? Entry: QMQAAYQKAVA [HBD_Y131_V134A]
Result: Not met

Ask: Form field: phosphorylation enrichment at least 1? Entry: PDDPSYSLVDD [PSTPIP2_Y323_N322S]
Result: Met

Ask: Form field: phosphorylation enrichment at least 1? Entry: FTAVGYHKHIT [NOMO1_Y1137]
Result: Not met

Ask: Form field: phosphorylation enrichment at least 1? Entry: YEKFLYFLPAS [DYNC2H1_Y346_H341Y]
Result: Met

Ask: Form field: phosphorylation enrichment at least 1? Entry: SFHCSYSEIKD [DCLRE1C_Y322_S320C]
Result: Met

Ask: Form field: phosphorylation enrichment at least 1? Entry: KDQGGYAMHQD [MAPT_Y29_T30A]
Result: Not met

Ask: Form field: phosphorylation enrichment at least 1? Entry: FGSIMYEFVGK [SLC18A1_Y251_V249I]
Result: Met

====

subjectOfTest: EPHB2 (UniProt P29323)
Sequence (P29323 whole entry, looked up): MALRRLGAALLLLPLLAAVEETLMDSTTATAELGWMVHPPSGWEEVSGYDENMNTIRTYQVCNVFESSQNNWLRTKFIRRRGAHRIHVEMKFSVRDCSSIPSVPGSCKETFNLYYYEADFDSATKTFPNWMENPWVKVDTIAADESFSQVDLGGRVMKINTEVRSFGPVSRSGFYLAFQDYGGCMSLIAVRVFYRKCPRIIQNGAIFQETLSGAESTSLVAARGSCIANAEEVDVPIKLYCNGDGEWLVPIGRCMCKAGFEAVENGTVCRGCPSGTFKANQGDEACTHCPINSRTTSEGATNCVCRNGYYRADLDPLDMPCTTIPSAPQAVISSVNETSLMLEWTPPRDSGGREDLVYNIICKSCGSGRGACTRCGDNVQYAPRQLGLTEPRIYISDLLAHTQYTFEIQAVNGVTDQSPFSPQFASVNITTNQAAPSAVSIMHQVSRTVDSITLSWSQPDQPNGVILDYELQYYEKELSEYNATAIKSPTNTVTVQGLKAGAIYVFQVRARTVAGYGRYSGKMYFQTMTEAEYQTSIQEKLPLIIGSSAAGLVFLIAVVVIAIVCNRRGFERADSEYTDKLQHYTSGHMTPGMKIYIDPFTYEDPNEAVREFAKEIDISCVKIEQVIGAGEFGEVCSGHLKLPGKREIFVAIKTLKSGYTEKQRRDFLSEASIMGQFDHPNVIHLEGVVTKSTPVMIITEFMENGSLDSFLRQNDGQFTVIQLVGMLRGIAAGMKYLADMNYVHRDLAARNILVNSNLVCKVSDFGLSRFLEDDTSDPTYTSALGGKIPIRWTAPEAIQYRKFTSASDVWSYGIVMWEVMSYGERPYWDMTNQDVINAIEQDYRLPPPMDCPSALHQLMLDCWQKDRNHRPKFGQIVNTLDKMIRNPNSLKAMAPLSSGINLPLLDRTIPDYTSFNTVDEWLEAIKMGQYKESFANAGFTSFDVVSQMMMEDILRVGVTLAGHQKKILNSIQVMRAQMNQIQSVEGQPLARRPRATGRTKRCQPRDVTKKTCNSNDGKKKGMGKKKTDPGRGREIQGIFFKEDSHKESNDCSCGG
protocolSummary: phosphorylation enrichment, bacterial display (enrichment ratio); higher = better substrate or ligand; peptides without Tyr show the background
recordedEndpoint: phosphorylation enrichment

See these solved cases before continuing.
sequenceText	phosphorylation enrichment
TKQLTYEEQYL [PIK3C3_Y310_D314Y]	0.603
KPPFSYNALIM [FOXG1_Y186]	0.488
VSSPKYGSNDE [TMCC2_Y473_D476N]	0.536
GPKFGYDEIDN [ACOX1_Y232]	0.688
EEGNPYFSSTR [MCCC2_Y520_A524T_YF]	0.527
IRSGIYFKPES [L2HGDH_Y102_H98R_YF]	0.687

The measured phosphorylation enrichment associated with PESCLYKESWI [IQGAP2_Y630_L635I] reads 1.2

The measured phosphorylation enrichment associated with LGIDRYHAIVY [NPSR1_Y147_S143G] reads 0.523

The measured phosphorylation enrichment associated with SKEPFYVRCIK [MYO1D_Y586_YF] reads 0.56

The measured phosphorylation enrichment associated with KMKGDYYCYLA [YWHAG_Y130_R132C] reads 4.35

The measured phosphorylation enrichment associated with PLFKICVAELI [MRPL28_Y230_Y230C] reads 0.888

====

subjectOfTest: Hck (UniProt P08631)
Sequence (P08631 whole entry, looked up): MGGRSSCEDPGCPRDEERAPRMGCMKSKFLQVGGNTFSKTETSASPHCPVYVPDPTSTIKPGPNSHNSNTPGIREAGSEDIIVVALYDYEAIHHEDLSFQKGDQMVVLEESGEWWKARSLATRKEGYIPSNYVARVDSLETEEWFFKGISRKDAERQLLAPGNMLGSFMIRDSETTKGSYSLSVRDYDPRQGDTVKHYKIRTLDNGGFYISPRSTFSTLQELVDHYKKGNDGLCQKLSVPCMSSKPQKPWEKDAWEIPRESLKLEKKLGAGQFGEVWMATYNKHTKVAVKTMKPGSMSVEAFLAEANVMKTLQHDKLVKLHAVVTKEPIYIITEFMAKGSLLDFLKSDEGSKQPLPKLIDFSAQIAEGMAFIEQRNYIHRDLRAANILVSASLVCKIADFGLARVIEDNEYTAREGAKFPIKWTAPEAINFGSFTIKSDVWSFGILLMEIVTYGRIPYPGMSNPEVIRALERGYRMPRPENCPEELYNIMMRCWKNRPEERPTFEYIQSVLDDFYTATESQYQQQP
protocolSummary: phosphorylation enrichment, bacterial display (enrichment ratio); higher = better substrate or ligand; peptides without Tyr show the background
# binarize phosphorylation enrichment: threshold 0.5 inclusive, high side TRUE, low side FALSE

Example entries begin here.
sequenceText	category
CIILLYIFLKN [STXBP1_Y411_R406C]	FALSE
AGITAYQSCLQ [ADGRA2_Y377]	TRUE
TYVVLYDAELT [ERCC4_Y581_R576T]	TRUE
EVDETYVPKKF [ALB_Y521_E525K]	FALSE
SESSFYKSLNL [NGEF_Y289_A286S_YF]	TRUE
NTGGFYDLFGG [PTPN11_Y63_D61G_YF]	TRUE

Ask: Form field: phosphorylation enrichment at least 0.5? Entry: RFLRGYEQDAY [HLA-A_Y137_R138E]
Result: FALSE

Ask: Form field: phosphorylation enrichment at least 0.5? Entry: ALAHKYHGGGG [HBB_Y146]
Result: FALSE

Ask: Form field: phosphorylation enrichment at least 0.5? Entry: INASGYRIGPA [ACSM1_Y477]
Result: FALSE

====

Tested on: c-Abl (mouse)
protocolSummary: phosphorylation enrichment, bacterial display (enrichment ratio); higher = better substrate or ligand; peptides without Tyr show the background
Items are presented alongside their recorded phosphorylation enrichment.

The measured phosphorylation enrichment associated with PVVKLYATDGR [RP1_Y199] reads 0.781

The measured phosphorylation enrichment associated with AAVDNYCRHNF [HLA-DRB1_Y107_T106N_YF] reads 0.484

The measured phosphorylation enrichment associated with IMVFVYCRVFQ [ADRB2_Y219_S220C] reads 0.63

The measured phosphorylation enrichment associated with FFIMMYTGSNV [DNAJC13_Y1131] reads 0.779

The measured phosphorylation enrichment associated with QLFGAYLRIHA [BSCL2_Y213_YF] reads 0.744

The measured phosphorylation enrichment associated with YENGEYIVRQG [PRKG1_Y247_I249V] reads 0.582

====

Items are presented alongside their recorded phosphorylation enrichment.
subjectOfTest: Hck (UniProt P08631)
protocolSummary: phosphorylation enrichment, bacterial display (enrichment ratio); higher = better substrate or ligand; peptides without Tyr show the background
API doc: respond with a numeric literal and nothing else, no unit.

See these solved cases before continuing.
sequenceText	readoutNumber
VNYGAYINDFN [GLB1_Y488_K493N]	0.533
ARVDTYCRHNF [HLA-DRB1_Y107_A103R_YF]	0.45
KSNSDYVDVLP [SH2D1B_Y127_N122K]	0.477
TVLWQYTGTRP [UGT1A1_Y337_R336Q]	0.499
RFLERYIFNRE [HLA-DPB1_Y57_YF]	0.44

The measured phosphorylation enrichment associated with DSFSSYCNAVA [SLC20A2_Y436_YF] reads 0.544

The measured phosphorylation enrichment associated with ADYYDYGRGLS [KHDRBS3_Y304_H306R] reads 7.62

The measured phosphorylation enrichment associated with GRPMDYQVSIT [OTOF_Y254] reads 0.417

The measured phosphorylation enrichment associated with LKVKAYRFSIS [LCT_Y974] reads 0.6

The measured phosphorylation enrichment associated with GDKKAYVRLAP [RPL23A_Y137_E133D] reads 0.482

The measured phosphorylation enrichment associated with FADTAYNYRHG [PAH_Y166_I164T] reads 0.514

The measured phosphorylation enrichment associated with HLLRIYYDITD [MMP27_Y307_W304L] reads 0.891

The measured phosphorylation enrichment associated with RFLRGYRQHAF [HLA-A_Y137_D140H_YF] reads 0.581

The measured phosphorylation enrichment associated with FMRGMYFRMKD [PLA2G6_Y541_YF] reads 0.428

The measured phosphorylation enrichment associated with MKNQKYGRIIM [HSD17B4_Y143_K140N] reads 0.439
